Tested on: Escherichia coli TOP10;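 further: peptides expressed intracellularly from a pBAD plasmid library in pooled LB shake-flask culture, induced with 0.3% L-arabinose, DNA abundance read by NGS, three biological replicates, DESeq2 with apeglm shrinkage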
Test: shrunken log2 fold change of peptide-encoding DNA abundance (4.5 h post-induction vs induction); higher = less antimicrobial activity (less host growth inhibition)
Conditions: time post-induction: 4.5 h; library: site-saturation at positions 5, 18, 19, 20
QUANTITY_NAME: shrunken log2 fold change
Answers are plain numbers.

Go through the list and state shrunken log2 fold change for each entry.
1. RRIRPRPPRLPRPRPRPVQLPRP
2. RRIRLRPPRLPRPRPRPGQMPRP
3. RRIRFRPPRLPRPRPRPIWKPRP
4. RRIRFRPPRLPRPRPRPFWFPRP
5. RRIRVRPPRLPRPRPRPNVSPRP

(A)
1. -0.135
2. 0.482
3. 0.248
4. -0.275
5. -0.0331

Go through the list and state shrunken log2 fold change for each entry.
1. RRIRYRPPRLPRPRPRPGNCPRP
2. RRIRSRPPRLPRPRPRPVSDPRP
3. RRIRQRPPRLPRPRPRPWSSPRP

(A)
1. -0.152
2. 0.32
3. -0.0435

The origin of these recorded values is the supplement of paper PMC9112550.
